TARGET UNDER TEST: 5-hydroxytryptamine receptor 1A (Homo sapiens)
Sequence (whole entry): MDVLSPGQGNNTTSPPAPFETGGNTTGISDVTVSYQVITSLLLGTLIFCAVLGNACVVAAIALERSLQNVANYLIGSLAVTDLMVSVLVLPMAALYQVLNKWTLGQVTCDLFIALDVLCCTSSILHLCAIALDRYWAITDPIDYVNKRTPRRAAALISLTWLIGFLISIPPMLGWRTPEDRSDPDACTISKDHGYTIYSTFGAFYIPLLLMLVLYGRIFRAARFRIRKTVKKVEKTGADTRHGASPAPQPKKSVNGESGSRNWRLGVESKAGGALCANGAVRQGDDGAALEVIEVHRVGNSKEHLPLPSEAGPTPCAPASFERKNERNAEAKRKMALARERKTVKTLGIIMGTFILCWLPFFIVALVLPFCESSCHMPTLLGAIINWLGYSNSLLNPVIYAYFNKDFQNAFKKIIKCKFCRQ
PROTOCOL DETAILS: SafetyScreen: 5-HT1A Human Serotonin GPCR Binding Agonist Radioligand LeadHunter Assay, catalogue number: 131
TEST PARAMETERS: Test compound concentration 10.0 uM
Provide the recorded inhibition for the entries that follow.
Field: numeric (%). Do not append units.

Query :: Tell us which inhibition value is on record for CC(C)[C@H](Nc1ncnc2[nH]ccc12)c1ccc2c(c1)S(=O)(=O)CCC2
Result :: 12

Query :: Give the measured inhibition for Cn1ncc(-c2cc3c(N[C@@H](c4ccc5c(n4)OCCO5)C(C)(C)C)ncnc3[nH]2)c1C#N
Result :: 15

Query :: Return inhibition (reported value) for this compound: CNC(=O)Cn1cc(-c2cc3c(N[C@@H](c4ccc5c(c4)S(=O)(=O)CCC5)C(C)C)ncnc3[nH]2)cn1
Result :: 13

Query :: Return inhibition for the following compound: CC(C)[C@H](Nc1ncnc2[nH]c(-c3cnn(C)c3C#N)cc12)c1ccc2c(n1)OCCO2
Result :: 43

Query :: Recall and state the measured inhibition for CC(C)[C@@H](Nc1ncnc2[nH]c(-c3cnn(C)c3C#N)cc12)c1ccc2c(n1)OCCO2 .
Result :: 22

Query :: Identify inhibition associated with the compound CC(C)[C@@H](Nc1ncnc2[nH]c(C(=O)N[C@@H]3CCN(C)C3)cc12)c1ccc2c(c1)S(=O)(=O)CCC2
Result :: 14

Query :: Identify measured inhibition associated with COc1ccc([C@H](Cc2nnn[nH]2)NC(=O)c2ncnc3[nH]ccc23)cc1
Result :: 5

Query :: // fetch inhibition given entry CNCc1cc(-c2cc3c(N[C@@H](c4ccc5c(c4)S(=O)(=O)CCC5)C(C)C)ncnc3[nH]2)co1
Result :: 6

Query :: Determine its reported inhibition: Cc1nn(C)cc1-c1cc2c(N[C@H](c3ccc4c(c3)S(=O)(=O)CCC4)C(C)C)ncnc2[nH]1
Result :: 10

Query :: Identify measured inhibition corresponding to C[C@H](C(=O)O)[C@@H](NC(=O)c1ncnc2[nH]ccc12)c1ccc(Br)cc1
Result :: 2

* * *

TARGET UNDER TEST: Voltage-gated L-type calcium channel (Rattus norvegicus, UniProt P22002+Q02485+P27732)
PROTOCOL DETAILS: SafetyScreen: Cav1.2 (L-type) Rat Calcium Ion Channel Binding (Dihydropyridine Site) LeadHunter Assay, catalogue number: 161
Assay type: protein assay
TEST PARAMETERS: at 10 µM, test compound concentration 10 uM
ASSAY READOUT: Inhibition (%)
Provide only the numeric value, understood in %.

Query :: For the molecule CC(C)[C@H](Nc1ncnc2[nH]c(-c3cnn(C)c3C#N)cc12)c1ccc2c(n1)OCCO2 , report Inhibition.
Result :: 9

Query :: Provide one value: measured Inhibition of CC(C)[C@H](Nc1ncnc2[nH]ccc12)c1ccc2c(c1)S(=O)(=O)CCC2
Result :: 12

Query :: Give me measured Inhibition, please, for this molecule: Cc1nn(C)cc1-c1cc2c(N[C@H](c3ccc4c(c3)S(=O)(=O)CCC4)C(C)C)ncnc2[nH]1
Result :: 12

Query :: Respond only with Inhibition recorded for CNC(=O)Cn1cc(-c2cc3c(N[C@@H](c4ccc5c(c4)S(=O)(=O)CCC5)C(C)C)ncnc3[nH]2)cn1
Result :: -1

Query :: Name the recorded Inhibition of the item COc1ccc([C@H](Cc2nnn[nH]2)NC(=O)c2ncnc3[nH]ccc23)cc1 in your answer.
Result :: -22

Query :: Output measured Inhibition for this item: Cn1ncc(-c2cc3c(N[C@@H](c4ccc5c(n4)OCCO5)C(C)(C)C)ncnc3[nH]2)c1C#N
Result :: 21

Query :: Output measured Inhibition for this item: C[C@H](C(=O)O)[C@@H](NC(=O)c1ncnc2[nH]ccc12)c1ccc(Br)cc1
Result :: -12

Query :: Identify the reported Inhibition for the following entry. CC(C)[C@@H](Nc1ncnc2[nH]c(C(=O)N[C@@H]3CCN(C)C3)cc12)c1ccc2c(c1)S(=O)(=O)CCC2
Result :: -6

Query :: Identify Inhibition associated with the molecule CNCc1cc(-c2cc3c(N[C@@H](c4ccc5c(c4)S(=O)(=O)CCC5)C(C)C)ncnc3[nH]2)co1
Result :: -3

Query :: Assign Inhibition to the following record: CC(C)[C@@H](Nc1ncnc2[nH]c(-c3cnn(C)c3C#N)cc12)c1ccc2c(n1)OCCO2
Result :: 10
